- Test system: LNCaP xenograft
- Method: Biodistribution of 68Ga-labeled compounds in mice bearing LNCaP xenograft
- Assay type: in vivo
- Condition notes: Spleen, 1 h p.i.
Assay endpoint: Biodistribution, Spleen (Avg) (% ID/g)
Express it in % ID/g; write the number only.

Which Biodistribution, Spleen (Avg) is reported for this compound? O=C(O)CCCC(NC(=O)NC(CNC(=O)CNC(=O)C(Cc1c2ccccc2cc2ccccc12)NC(=O)C1CCC(CNC(=O)CN2CCN(CC(=O)O)CCN(CC(=O)O)CCN(CC(=O)O)CC2)CC1)C(=O)O)C(=O)O.[68Ga] (centres unmarked) [68Ga-CCZ01198]
0.12

Which Biodistribution, Spleen (Avg) is reported for this compound? O=C(O)CSCC(NC(=O)NC(Cc1cn(CCNC(=O)C(Cc2c3ccccc3cc3ccccc23)NC(=O)C2CCC(CNC(=O)CN3CCN(CC(=O)O)CCN(CC(=O)O)CCN(CC(=O)O)CC3)CC2)nn1)C(=O)O)C(=O)O.[68Ga] (centres unmarked) [^68Ga-CCZ01186]
0.34
